B1: KCNG1 (parent)
chain: AVNLSVSTLPSLREEEEQVRAHAP

- Variants of: B1
- PROCEDURE SUMMARY: protein stability index of a GFP-peptide fusion (GPS, HEK-293T) (PSI 1-6); higher = more stable;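 further: lentivirally expressed fusions sorted by FACS into six bins by GFP to DsRed ratio, PSI derived from sequencing read proportions per bin multiplied by bin number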
- CONDITION PARAMETERS: c terminus: a fixed tail appended
Class Criterion met: protein stability index at least 5. Class Criterion not met: protein stability index below 5.

In [3]: df
Out[3]:
    mutation_name       answer_label
 0           E17H  Criterion not met
 1           R20A      Criterion met
 2           S11W  Criterion not met
 3           L12G      Criterion met
 4            S7L  Criterion not met
 5            L9W  Criterion not met
 6           E14P  Criterion not met
 7            V6L  Criterion not met
 8            S5A      Criterion met
 9            V2F  Criterion not met
10           S11L  Criterion not met
11           P10C  Criterion not met
12           R20D      Criterion met
13           E16W  Criterion not met
14            S5V  Criterion not met
